# Target system: T1, Recombinant MBP-mutCALR Type 1 fusion protein (human)
# T1 construct: custom made at Cepter; also called recombinant mutCALR protein
# Assay notes: SPR, IgG captured, 1:1 fit, Exp. 2
Entry class follows koff: LOW (below 0.004 s⁻¹), MID (0.004 s⁻¹ to below 0.007 s⁻¹), HIGH (0.007 s⁻¹ or more)

[[record]]
binder = "anti-mutCALR antibody clone 189 (antibody, human IgG1, lambda, N297A, V domains shown) VH: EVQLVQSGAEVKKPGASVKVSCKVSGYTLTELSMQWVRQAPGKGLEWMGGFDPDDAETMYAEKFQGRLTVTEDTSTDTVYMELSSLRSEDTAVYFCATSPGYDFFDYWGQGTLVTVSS VL: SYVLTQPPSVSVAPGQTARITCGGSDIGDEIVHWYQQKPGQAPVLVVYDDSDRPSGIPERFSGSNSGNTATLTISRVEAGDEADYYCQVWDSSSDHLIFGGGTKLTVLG"
group_label = "HIGH"

[[record]]
binder = "anti-mutCALR antibody clone 132 (antibody, human IgG1, lambda, N297A, V domains shown, human IgG1 N297A variant of clone 15) VH: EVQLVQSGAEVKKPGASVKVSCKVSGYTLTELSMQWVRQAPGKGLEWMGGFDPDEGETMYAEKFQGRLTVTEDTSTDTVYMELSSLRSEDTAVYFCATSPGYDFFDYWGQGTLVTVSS VL: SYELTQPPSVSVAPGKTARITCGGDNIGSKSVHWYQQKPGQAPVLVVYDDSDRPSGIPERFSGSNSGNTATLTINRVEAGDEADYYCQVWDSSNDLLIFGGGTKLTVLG"
group_label = "LOW"

[[record]]
binder = "anti-mutCALR antibody clone 78 (antibody, human IgG1, lambda, N297A, V domains shown, human IgG1 N297A variant of clone 6) VH: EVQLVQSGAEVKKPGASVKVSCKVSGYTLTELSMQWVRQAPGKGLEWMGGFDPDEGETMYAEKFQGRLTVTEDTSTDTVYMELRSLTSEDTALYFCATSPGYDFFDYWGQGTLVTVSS VL: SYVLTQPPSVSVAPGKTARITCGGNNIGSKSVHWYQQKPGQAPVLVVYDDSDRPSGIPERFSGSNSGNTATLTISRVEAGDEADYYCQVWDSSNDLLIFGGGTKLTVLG"
group_label = "LOW"

[[record]]
binder = "anti-mutCALR antibody clone 184 (antibody, human IgG1, lambda, N297A, V domains shown, human IgG1 N297A variant of clone 17) VH: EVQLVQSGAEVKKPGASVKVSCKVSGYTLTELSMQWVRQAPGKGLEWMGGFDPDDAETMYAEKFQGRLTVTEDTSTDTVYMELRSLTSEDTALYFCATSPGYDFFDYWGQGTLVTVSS VL: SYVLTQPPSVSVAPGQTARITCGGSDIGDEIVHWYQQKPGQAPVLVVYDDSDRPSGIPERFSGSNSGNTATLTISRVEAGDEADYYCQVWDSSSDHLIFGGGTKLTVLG"
group_label = "LOW"

[[record]]
binder = "anti-mutCALR antibody clone 76 (antibody, human IgG1, lambda, N297A, V domains shown, human IgG1 N297A variant of clone 6) VH: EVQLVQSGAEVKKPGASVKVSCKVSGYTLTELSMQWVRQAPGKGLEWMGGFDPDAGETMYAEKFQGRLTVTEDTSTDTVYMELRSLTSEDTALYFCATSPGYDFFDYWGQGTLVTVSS VL: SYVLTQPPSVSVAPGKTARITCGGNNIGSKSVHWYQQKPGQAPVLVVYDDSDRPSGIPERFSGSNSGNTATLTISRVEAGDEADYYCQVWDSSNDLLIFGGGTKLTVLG"
group_label = "HIGH"

[[record]]
binder = "anti-mutCALR antibody clone 82 (antibody, human IgG1, lambda, N297A, V domains shown, human IgG1 N297A variant of clone 6) VH: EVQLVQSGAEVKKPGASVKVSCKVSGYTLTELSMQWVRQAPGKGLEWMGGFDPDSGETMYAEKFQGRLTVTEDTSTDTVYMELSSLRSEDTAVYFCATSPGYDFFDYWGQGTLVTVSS VL: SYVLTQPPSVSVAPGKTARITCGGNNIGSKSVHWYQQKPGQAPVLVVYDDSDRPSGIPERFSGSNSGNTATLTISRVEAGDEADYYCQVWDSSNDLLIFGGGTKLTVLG"
group_label = "MID"

[[record]]
binder = "anti-mutCALR antibody clone 61 (antibody, human IgG1, lambda, N297A, V domains shown, human IgG1 N297A variant of clone 6) VH: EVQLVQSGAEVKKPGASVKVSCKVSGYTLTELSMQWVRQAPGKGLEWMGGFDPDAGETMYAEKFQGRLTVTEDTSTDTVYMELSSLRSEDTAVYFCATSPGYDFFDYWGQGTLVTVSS VL: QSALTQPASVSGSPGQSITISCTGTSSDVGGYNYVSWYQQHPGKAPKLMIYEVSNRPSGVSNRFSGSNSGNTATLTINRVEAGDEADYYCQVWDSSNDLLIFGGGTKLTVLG"
group_label = "LOW"

[[record]]
binder = "anti-mutCALR antibody clone 125 (antibody, human IgG1, lambda, N297A, V domains shown, human IgG1 N297A variant of clone 15) VH: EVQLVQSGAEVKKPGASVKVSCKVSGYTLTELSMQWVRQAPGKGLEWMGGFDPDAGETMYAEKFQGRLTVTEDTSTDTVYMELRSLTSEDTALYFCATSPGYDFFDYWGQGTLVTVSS VL: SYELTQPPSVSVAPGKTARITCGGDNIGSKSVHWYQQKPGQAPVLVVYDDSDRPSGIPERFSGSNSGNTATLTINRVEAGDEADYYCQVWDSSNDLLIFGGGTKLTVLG"
group_label = "HIGH"

[[record]]
binder = "anti-mutCALR antibody clone 135 (antibody, human IgG1, lambda, N297A, V domains shown, human IgG1 N297A variant of clone 15) VH: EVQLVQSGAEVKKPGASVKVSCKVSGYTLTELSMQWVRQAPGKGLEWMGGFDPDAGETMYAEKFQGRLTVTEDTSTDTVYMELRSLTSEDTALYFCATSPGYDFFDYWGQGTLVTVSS VL: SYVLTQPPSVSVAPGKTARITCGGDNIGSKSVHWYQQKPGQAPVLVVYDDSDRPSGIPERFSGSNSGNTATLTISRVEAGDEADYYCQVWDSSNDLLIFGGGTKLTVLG"
group_label = "MID"

